- Study target: EGFR T790M/L858R Ba/F3 cell line (Homo sapiens, UniProt P00533, T790M/L858R, cells depend on it)
- Sequence (P00533 whole entry T790M/L858R): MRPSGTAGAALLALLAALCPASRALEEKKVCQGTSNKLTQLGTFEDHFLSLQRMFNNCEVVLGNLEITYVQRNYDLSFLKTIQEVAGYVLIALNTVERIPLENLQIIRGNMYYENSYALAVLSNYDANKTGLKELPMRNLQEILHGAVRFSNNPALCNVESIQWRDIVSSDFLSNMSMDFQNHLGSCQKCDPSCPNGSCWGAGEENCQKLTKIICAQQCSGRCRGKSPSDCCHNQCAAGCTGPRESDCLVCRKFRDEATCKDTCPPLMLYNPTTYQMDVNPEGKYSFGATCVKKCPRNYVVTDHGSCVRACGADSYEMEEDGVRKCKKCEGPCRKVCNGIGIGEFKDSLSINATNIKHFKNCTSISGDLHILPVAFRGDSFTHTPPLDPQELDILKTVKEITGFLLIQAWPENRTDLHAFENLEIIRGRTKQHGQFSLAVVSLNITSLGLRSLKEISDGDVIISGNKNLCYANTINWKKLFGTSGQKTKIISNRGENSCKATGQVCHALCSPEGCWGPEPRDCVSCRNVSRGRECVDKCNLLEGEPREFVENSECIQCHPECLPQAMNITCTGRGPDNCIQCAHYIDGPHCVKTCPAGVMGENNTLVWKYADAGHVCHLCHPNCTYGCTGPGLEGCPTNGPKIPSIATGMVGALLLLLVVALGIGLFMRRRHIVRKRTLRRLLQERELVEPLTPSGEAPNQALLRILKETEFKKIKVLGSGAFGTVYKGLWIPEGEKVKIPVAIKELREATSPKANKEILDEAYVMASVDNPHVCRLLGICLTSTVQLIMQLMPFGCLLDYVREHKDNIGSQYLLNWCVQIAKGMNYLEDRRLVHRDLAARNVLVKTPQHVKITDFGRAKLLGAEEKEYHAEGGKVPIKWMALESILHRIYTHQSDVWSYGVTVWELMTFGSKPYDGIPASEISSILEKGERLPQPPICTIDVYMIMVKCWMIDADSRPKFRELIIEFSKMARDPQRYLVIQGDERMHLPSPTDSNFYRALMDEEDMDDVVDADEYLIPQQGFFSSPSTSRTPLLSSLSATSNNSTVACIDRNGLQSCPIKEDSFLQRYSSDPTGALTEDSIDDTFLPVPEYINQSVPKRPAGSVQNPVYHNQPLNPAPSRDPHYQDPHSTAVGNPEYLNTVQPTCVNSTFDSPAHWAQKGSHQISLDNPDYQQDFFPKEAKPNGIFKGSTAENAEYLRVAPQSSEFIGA
- Assay details: Ba/F3 cell proliferation (MTS assay), EGFR T790M/L858R
- Type: cell-based, murine
- Stated conditions: absence of cetuximab; read-out: Ba/F3 cellular activity (EC50) T790M/L858R
pEC50: −log10 of the molar value.
Measured pEC50 accompanies every entry in the list below.

>>> value("O=C1c2cc(Br)ccc2Nc2ccc(F)cc2N1Cc1ccccc1")
"≤ 6.12"
>>> value("C=CC(=O)Nc1ccc2c(c1)N(Cc1ccccc1)C(=O)c1cc(-c3ccc4[nH]ccc4c3)ccc1N2")
"≤ 6.12"
>>> value("C=CC(=O)Nc1ccc2c(c1)N(Cc1ccccc1)C(=O)c1cc(-c3ccc(N4CCNCC4)cc3)ccc1N2")
"≤ 6.12"

# query: pEC50 of entry O=C(CCl)Nc1ccc2c(c1)N(Cc1ccccc1)C(=O)c1cc(-c3ccc4[nH]ccc4c3)ccc1N2
> 6.60

====

- Study target: EGFR T790M/L858R Ba/F3 cell line (Homo sapiens, UniProt P00533, T790M/L858R, cells depend on it)
- Assay details: Ba/F3 cell proliferation (MTS assay), EGFR T790M/L858R
- Assay type: cell-based, murine
- Stated conditions: read-out: Ba/F3 cellular activity (EC50) T790M/L858R + Cetuximab; presence of 1 μg/mL cetuximab
Measured EC50 accompanies every entry in the list below.

Worked examples follow.
>>> value("C=CC(=O)Nc1ccc2c(c1)N(Cc1ccccc1)C(=O)c1cc(-c3ccc(N4CCNCC4)cc3)ccc1N2 [Compound I-3]")
"≥ 750 nM"
>>> value("O=C1c2cc(Br)ccc2Nc2ccc(F)cc2N1Cc1ccccc1 [I-a]")
"250 to 500 nM"
>>> value("O=C(CCl)Nc1ccc2c(c1)N(Cc1ccccc1)C(=O)c1cc(-c3ccc4[nH]ccc4c3)ccc1N2 [Compound I-2]")
"< 250 nM"

Proceeding to the next compound to report its EC50.
# query: EC50 of entry C=CC(=O)Nc1ccc2c(c1)N(Cc1ccccc1)C(=O)c1cc(-c3ccc4[nH]ccc4c3)ccc1N2 [Compound I-1]
500 to 750 nM
